Value source: paper PMC11912471

test system: normal primary human neonatal fibroblast cells; assay: Sulforhodamine B (SRB) cytotoxicity assay, neonatal fibroblasts; format: cell-based; conditions: 72 hr, 500 μM, percent cytotoxicity
Readout Label: Cell cytotoxicity (72 hr @ 500 μM) Neonatal Fibroblasts (%)

INSERT INTO results (molecule, reported_measurement) VALUES
  ('Cc1ncc(COP(=O)(O)O)c(/C=N/OCC2(F)CCNC2)c1O (centres unmarked)', 57),
  ('NCCC[C@](N)(C(=O)O)C(F)F', 41),
  ('NOCC1CNCCO1 (centres unmarked)', 0),
  ('NCCCON', 37),
  ('Cc1ncc(COP(=O)(O)O)c(/C=N/OCCCN)c1O', 12),
  ('Cl.Cl.NOCC1(F)CCNC1 (centres unmarked)', 21),
  ('NOC[C@@H]1CCCNC1', 0),
  ('NOC[C@@H]1CCNC1', 16),
  ('NOC[C@H]1CCNC1', 9),
  ('NOC[C@H]1CCCNC1', 0),
  ('Cc1ncc(COP(=O)(O)O)c(/C=N/OC[C@H]2CCNC2)c1O', 40),
  ('NOCC1CCNC1 (centres unmarked)', 14),
  ('NOCC1CCCNC1 (centres unmarked)', 3),
  ('Cc1ncc(COP(=O)(O)O)c(/C=N/OC[C@@H]2CCNC2)c1O', 36);
